Molecular target: recombinant human serotonin transporter (Homo sapiens)
Construct: expressed in transfected cells
Assay: serotonin (5HT) reuptake inhibition in HEK 293 cells
Assay type: cell-based
Settings: RR/SS racemates table; HEK 293 cells; read-out: SEROTONIN 5HT REUPTAKE (IC50)
Metric: pIC50
Worth noting: pIC50 values are minus log10 of concentrations stated in mol/L.

CC(C)CC(c1ccc(Cl)c(Cl)c1)C1CCCCN1 (racemic) [Sample N] = 5.96

# context switch: different compound, same pIC50
Recorded pIC50 of CCCC(c1ccc(Cl)cc1)C1CCCCN1 (racemic) [Sample E] , please.
5.54

----------
Target: recombinant human norepinephrine transporter (Homo sapiens)
Construct: expressed in transfected cells
Sequence (P23975 whole entry): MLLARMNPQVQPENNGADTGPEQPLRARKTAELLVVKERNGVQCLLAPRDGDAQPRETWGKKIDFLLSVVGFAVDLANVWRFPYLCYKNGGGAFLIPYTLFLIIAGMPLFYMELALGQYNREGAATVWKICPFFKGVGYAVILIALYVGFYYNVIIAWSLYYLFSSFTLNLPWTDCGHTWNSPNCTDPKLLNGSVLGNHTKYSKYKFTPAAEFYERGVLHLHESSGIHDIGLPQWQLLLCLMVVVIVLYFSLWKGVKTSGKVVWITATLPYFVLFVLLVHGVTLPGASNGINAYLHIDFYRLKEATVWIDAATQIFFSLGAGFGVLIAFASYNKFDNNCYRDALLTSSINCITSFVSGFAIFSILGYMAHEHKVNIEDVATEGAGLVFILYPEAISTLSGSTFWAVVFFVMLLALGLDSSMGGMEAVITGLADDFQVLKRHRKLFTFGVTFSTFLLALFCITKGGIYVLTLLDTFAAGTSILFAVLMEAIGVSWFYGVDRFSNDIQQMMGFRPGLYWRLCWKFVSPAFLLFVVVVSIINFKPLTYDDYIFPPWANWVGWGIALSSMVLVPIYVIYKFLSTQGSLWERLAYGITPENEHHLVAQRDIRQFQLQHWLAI
Assay: cell-based
Conditions: RR/SS racemates table; HEK 293 cells; read-out: NOREPINEPHRINE NE REUPTAKE (IC50)
Metric: pIC50
Conceptually, pIC50 converts a concentration in mol/L into minus its log10.

COC(=O)C(c1ccc(Cl)c(Cl)c1)C1CCCCN1 (single isomer, unassigned) = 8.00
CC(C)CC(c1ccc(Cl)c(Cl)c1)C1CCCCN1C (single isomer, unassigned) = 7.54
CC(C)CC(c1ccc(Cl)cc1)C1CCCCN1 (racemic) = 6.92
CC(C)CC(c1ccc(Cl)c(Cl)c1)C1CCCCN1 (racemic) = 8.05
CCC(c1ccc(Cl)cc1)C1CCCCN1 (single isomer, unassigned) = 6.68

GET /values?readout=pIC50&system=recombinant human norepinephrine transporter (Homo sapiens)&item= COC(=O)C(c1ccc(Cl)cc1)C1CCCCN1 (single isomer, unassigned)
7.96

Do the same for CCCCC(c1ccc(Cl)cc1)C1CCCCN1 (single isomer, unassigned) please
7.59

Try Clc1ccc(C(CC2CCCC2)C2CCCCN2)cc1 (racemic) next.
6.51

What about this compound? CCCC(c1ccc(Cl)cc1)C1CCCCN1 (racemic)
7.30

----------
Target: recombinant human serotonin transporter (Homo sapiens)
Construct: expressed in transfected cells
Test: serotonin (5HT) reuptake inhibition in HEK 293 cells
Type: cell-based
Details: SEROTONIN 5HT REUPTAKE (IC50), RS/SR racemates table; HEK 293 cells
Metric: log10 of IC50 (log10 of the value in µM)
The common logarithm of IC50 in µM is what is listed.

# annotated cases, reported log10 of IC50 shown
Clc1ccc(C(Cc2ccccc2)C2CCCCN2)cc1 (single isomer, unassigned) [JJ] = 0.67
Clc1ccc(C(CCc2ccccc2)C2CCCCN2)cc1 (single isomer, unassigned) [II] = 0.32
Clc1ccc(C(C2CCCC2)C2CCCCN2)cc1 (single isomer, unassigned) [KK] = 0.62
Clc1ccc(C(CC2CCCCC2)C2CCCCN2)cc1 (single isomer, unassigned) [HH] = 0.81
COC(=O)C(c1ccccc1)C1CCCCN1 (centres unmarked) [MPH, methylphenidate, reference compound] = 1.74

// switching to the query compound
Reported log10 of IC50, compound CCCC(c1ccc(Cl)cc1)C1CCCCN1 (racemic) [EE] : ____
0.11

----------
Biological target: recombinant human dopamine transporter (Homo sapiens)
Construct: expressed in transfected cells
Test: [125I]RTI-55 binding, dopamine transporter in HEK 293 cells
Conditions: DOPAMINE [I125]-RTI-55 BINDING (Ki), RS/SR racemates table; HEK 293 cells
Decision: Ki beneath 400 nM gives Condition met; Ki meeting or exceeding 400 nM gives Condition not met.

Below 400 nM on Ki? Entry CC(C)CC(c1ccc(Cl)c(Cl)c1)C1CCCCN1C (single isomer, unassigned) [OO]
Condition met

Now try Clc1ccc(C(Cc2ccccc2)C2CCCCN2)cc1 (single isomer, unassigned) [JJ] .
Condition not met

Also, CC(C)C(c1ccc(Cl)cc1)C1CCCCN1 (single isomer, unassigned) [CC] please.
Condition not met

----------
Target: recombinant human dopamine transporter (Homo sapiens)
Construct: expressed in transfected cells
Test: dopamine reuptake inhibition in HEK 293 cells
Assay type: cell-based
Details: DOPAMINE DA REUPTAKE (IC50), RS/SR racemates table; HEK 293 cells
Reported pIC50 by item:
pIC50 here is simply -log10 of the concentration when that concentration is written in mol/L.

COC(=O)C(c1ccc(Cl)c(Cl)c1)C1CCCCN1 (single isomer, unassigned) = 6.10

Would you kindly share the measured pIC50 for CC(C)C(c1ccc(Cl)cc1)C1CCCCN1 (single isomer, unassigned) ?
6.00

Please give the result for CC(C)(C)CC(c1ccc(Cl)cc1)C1CCCCN1 (racemic) too.
6.17

----------
Molecular target: recombinant human serotonin transporter (Homo sapiens, UniProt P31645)
Construct: expressed in transfected cells
Sequence (P31645 whole entry): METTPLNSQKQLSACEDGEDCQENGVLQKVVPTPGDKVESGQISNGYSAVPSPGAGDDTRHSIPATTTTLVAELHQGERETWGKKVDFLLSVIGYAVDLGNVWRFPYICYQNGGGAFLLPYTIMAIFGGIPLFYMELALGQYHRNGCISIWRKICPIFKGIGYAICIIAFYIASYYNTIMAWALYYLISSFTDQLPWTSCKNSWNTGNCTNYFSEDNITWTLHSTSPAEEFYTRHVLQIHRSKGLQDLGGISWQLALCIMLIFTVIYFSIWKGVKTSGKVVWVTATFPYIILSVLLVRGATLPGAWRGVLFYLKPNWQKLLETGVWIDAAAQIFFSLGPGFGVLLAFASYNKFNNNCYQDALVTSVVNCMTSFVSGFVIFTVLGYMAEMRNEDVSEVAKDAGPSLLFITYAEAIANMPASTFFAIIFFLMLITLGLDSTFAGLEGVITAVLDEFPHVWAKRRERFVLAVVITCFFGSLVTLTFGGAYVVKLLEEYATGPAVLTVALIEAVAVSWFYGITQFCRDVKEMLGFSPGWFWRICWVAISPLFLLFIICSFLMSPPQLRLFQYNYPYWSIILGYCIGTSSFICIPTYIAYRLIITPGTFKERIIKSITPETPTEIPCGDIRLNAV
Assay: serotonin (5HT) reuptake inhibition in HEK 293 cells
Type: cell-based
Conditions: SEROTONIN 5HT REUPTAKE (IC50), RS/SR racemates table; HEK 293 cells
Reported pIC50 values are given for each entry in this list.
pIC50 is defined as minus the log10 of a concentration measured in mol/L.

Consider the reported pIC50 for these compounds:
CC(C)CC(c1ccc(C(C)C)cc1)C1CCCCN1 (racemic) [PP] = 5.77
CC(C)(C)CC(c1ccc(Cl)cc1)C1CCCCN1 (racemic) [FF] = 5.74
CCC(c1ccc(Cl)cc1)C1CCCCN1 (single isomer, unassigned) [BB] = 5.70

Which pIC50 is listed for COC(=O)C(c1ccc(Cl)c(Cl)c1)C1CCCCN1 (single isomer, unassigned) [MM] ?
5.96

Could you do the same for CC(C)CC(c1ccc(Cl)c(Cl)c1)C1CCCCN1C (single isomer, unassigned) [OO] , please?
5.62

----------
Molecular target: recombinant human dopamine transporter (Homo sapiens, UniProt Q01959)
Construct: expressed in transfected cells
Sequence (Q01959 whole entry): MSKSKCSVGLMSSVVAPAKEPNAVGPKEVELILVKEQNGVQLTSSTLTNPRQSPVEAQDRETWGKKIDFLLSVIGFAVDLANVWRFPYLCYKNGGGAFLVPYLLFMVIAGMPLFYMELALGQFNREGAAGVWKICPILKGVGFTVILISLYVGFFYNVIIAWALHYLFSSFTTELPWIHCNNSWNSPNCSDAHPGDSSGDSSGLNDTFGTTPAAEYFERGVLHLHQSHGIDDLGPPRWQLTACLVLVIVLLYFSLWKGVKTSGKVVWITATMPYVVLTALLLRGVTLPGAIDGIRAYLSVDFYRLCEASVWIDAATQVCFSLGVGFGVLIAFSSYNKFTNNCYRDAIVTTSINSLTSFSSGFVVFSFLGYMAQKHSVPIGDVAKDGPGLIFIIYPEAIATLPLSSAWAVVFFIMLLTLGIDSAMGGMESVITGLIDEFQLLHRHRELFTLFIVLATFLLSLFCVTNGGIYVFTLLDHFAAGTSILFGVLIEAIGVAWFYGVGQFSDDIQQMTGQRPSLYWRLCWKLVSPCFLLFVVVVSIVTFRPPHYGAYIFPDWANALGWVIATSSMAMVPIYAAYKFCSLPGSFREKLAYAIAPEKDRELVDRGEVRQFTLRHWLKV
Assay: [125I]RTI-55 binding, dopamine transporter in HEK 293 cells
Settings: DOPAMINE [I125]-RTI-55 BINDING (Ki), RS/SR racemates table; HEK 293 cells
pKi: −log10 of the molar value.
# pKi >= 6 gives MET, anything below gives NOT MET

CC(C)(C)CC(c1ccc(Cl)cc1)C1CCCCN1 (racemic) [FF] = MET
COC(=O)C(c1ccc(Cl)c(Cl)c1)C1CCCCN1 (single isomer, unassigned) [MM] = MET
CCCC(c1ccc(Cl)cc1)C1CCCCN1 (racemic) [EE] = MET
Clc1ccc(C(CC2CCCCC2)C2CCCCN2)cc1 (single isomer, unassigned) [HH] = MET

Given CCC(c1ccc(Cl)cc1)C1CCCCN1 (single isomer, unassigned) [BB] , state whether its pKi is at least 6.
NOT MET
